target: human CD33 P238A (human, UniProt P20138 18-364); assay: alanine scan, flow cytometry, HEK293-T;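 also: antibody binding to each alanine-substituted CD33 mutant expressed transiently in HEK293-T, read as fluorescence minus background, mean of duplicates, relative to wild-type CD33 set as 100%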
Sequence (P20138 18-364 P238A limits assumed): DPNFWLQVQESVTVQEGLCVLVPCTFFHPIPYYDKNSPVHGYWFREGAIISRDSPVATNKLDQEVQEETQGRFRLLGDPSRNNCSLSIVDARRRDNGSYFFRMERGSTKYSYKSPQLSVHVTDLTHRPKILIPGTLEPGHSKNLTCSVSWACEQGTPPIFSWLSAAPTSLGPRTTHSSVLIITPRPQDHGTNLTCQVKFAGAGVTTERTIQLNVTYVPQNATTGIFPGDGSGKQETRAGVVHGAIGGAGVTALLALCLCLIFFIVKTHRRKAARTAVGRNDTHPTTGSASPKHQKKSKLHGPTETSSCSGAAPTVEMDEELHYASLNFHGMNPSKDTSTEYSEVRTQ
Record form. Attribute: Mean % WT Binding. Fill in for each entry.
Answers are plain numbers, in %.

Binder: Refmab #2 (antibody, V domains shown, In the alanine scan antibodies were used as IgG or Fab) VH: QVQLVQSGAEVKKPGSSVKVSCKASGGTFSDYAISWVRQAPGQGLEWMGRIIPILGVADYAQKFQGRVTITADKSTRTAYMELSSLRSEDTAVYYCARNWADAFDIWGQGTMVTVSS VL: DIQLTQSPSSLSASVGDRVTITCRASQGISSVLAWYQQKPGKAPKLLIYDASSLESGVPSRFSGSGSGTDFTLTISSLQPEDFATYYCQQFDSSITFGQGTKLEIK
Mean % WT Binding [%]: 119
--
Binder: Refmab #1 (antibody, V domains shown, In the alanine scan antibodies were used as IgG or Fab; also called hP67.6) VH: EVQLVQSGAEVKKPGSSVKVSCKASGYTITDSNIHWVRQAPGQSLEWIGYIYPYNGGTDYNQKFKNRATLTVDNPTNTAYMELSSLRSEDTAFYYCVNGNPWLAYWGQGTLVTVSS VL: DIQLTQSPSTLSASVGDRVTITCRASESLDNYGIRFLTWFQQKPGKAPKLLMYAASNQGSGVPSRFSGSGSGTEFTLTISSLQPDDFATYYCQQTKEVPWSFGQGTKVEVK
Mean % WT Binding [%]: 101

Next up:
Can you share its Mean % WT Binding? I mean this binder: Refmab #3 (antibody, V domains shown, In the alanine scan antibodies were used as IgG or Fab) VH: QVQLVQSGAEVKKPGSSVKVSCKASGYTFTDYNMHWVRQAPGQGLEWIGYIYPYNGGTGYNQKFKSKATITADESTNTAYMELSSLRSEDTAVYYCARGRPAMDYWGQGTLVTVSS VL: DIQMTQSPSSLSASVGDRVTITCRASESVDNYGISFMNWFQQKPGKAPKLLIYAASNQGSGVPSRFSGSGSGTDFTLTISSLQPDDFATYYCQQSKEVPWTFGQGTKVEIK
122
